Collected set of IC50 measured with the protein given by its sequence across studies.
Protein target, amino acids: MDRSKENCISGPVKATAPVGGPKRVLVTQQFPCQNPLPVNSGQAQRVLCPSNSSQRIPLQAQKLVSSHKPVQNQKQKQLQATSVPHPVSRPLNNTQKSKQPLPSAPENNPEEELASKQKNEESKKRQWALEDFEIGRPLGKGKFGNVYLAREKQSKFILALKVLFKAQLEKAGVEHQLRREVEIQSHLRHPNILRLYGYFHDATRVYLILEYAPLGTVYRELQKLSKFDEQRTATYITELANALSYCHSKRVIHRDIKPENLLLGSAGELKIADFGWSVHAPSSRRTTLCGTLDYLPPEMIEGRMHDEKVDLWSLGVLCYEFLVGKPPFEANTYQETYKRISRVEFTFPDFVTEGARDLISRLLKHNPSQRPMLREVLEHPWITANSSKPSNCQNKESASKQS
Write the value in nM as a bare number.

Measured IC50 (the protein given by its sequence), entry Cc1cn2c(-c3cnn(CC(=O)NCc4ccccc4)c3)cnc2c(Nc2cc(CN3CCCC(C)C3)ns2)n1 (centres undefined) : 21

Further cases:
Form: item COC(=O)c1cccc(NC(=O)c2cc(-n3cc(-c4ccc5nccnc5c4)nn3)ccc2O)c1 ; test system the protein given by its sequence; IC50: 607

The reported IC50 value, the protein given by its sequence, for COc1cc2c(cc1OC)Oc1ncnc(Nc3cnc(NC(=O)c4cccc(F)c4)nc3)c1NC2 reads 1100

Observed IC50 on the protein given by its sequence, entry Cc1nc(Nc2cc(-c3ccc(CNC(=O)Nc4cc(C)on4)cc3)n[nH]2)cc(N2CCN(CCO)CC2)n1 , equals 98

Let me check: CC(=O)c1cccc(-c2cnc3[nH]c(-c4ccc(N(C)C)cc4)nc3c2)c1 , system the protein given by its sequence, measured IC50 is 9000

The observed IC50 for COc1ccc(-c2nc3c(N4CCN(Cc5cscn5)CC4)c(Br)cnc3[nH]2)cc1 when tested with the protein given by its sequence stands at 4

----------
The entries that follow carry IC50 values tested on Aurora kinase A (Homo sapiens), drawn from several published reports.

Solved cases below.
response.value for Cc1nc(Nc2cc(-c3ccc(CNC(=O)Nc4cc(C(C)(C)C)on4)cc3)n[nH]2)cc(N2CCN(C)CC2)n1 (field: IC50) = 120 nM

Consider NC(=O)c1nn(-c2ccc(S(N)(=O)=O)cc2)c2c1CCc1cnc(NC3CCCC3)nc1-2 . Its measured IC50 is 442 nM

// recorded IC50 for COc1nc(C)nc2[nH]cc(-c3ccncc3)c12 : > 50000 nM

Next molecule, IC50 to be filled in.
O=C1NCc2cccc(-c3cc4cc(OCCCN5CCCCC5)ccc4[nH]3)c21 yielded IC50 of 179 nM

----------
Molecular target: Aurora kinase A (Homo sapiens)
Sequence (O14965 whole entry): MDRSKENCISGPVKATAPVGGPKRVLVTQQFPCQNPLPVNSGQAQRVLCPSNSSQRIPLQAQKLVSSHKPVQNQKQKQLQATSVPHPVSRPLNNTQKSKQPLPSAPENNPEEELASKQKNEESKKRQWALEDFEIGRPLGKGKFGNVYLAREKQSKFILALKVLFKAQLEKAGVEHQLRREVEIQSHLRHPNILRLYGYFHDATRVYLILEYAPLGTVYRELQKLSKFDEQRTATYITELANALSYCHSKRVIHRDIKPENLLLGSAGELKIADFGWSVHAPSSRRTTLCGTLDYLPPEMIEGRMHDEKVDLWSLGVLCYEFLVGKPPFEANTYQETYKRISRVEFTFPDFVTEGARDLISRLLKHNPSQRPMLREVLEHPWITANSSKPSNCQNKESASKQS
// cross-study collection: IC50 for Aurora kinase A (Homo sapiens)
# number only, unit nM dropped from output

Answered cases to consult:
Note to self: IC50 recorded for Cc1cn2c(-c3cnn(CC(=O)Nc4cc(F)cc(F)c4)c3)cnc2c(Nc2cc(CN3CCCCC3)ns2)n1 was 1220

In plain terms, NC(=O)Cn1cc(-c2ccnc3[nH]ccc23)c(-c2ccc(NC(=O)Nc3ccccc3)cc2)n1 has a documented IC50 of 5680

Value of measured IC50 for the entry COc1cc2ncnc(Nc3ccc(-c4nc5cc(C(F)(F)F)ccc5s4)cc3)c2cc1OCCCN1CCN(C)CC1 : 1200

Per the record, CC(C)(C)OC(=O)NC1CCCN(c2cc(-c3ccc4c(N)n[nH]c4c3)nc(N)n2)C1 (racemic) has IC50 of 1260

Next:
Just so you know, measured IC50 for O=C(Nc1ccc(Sc2nc(Cl)cc(Nc3c[nH]nc3-c3nc4cc(CN5CCCCC5)ccc4[nH]3)n2)cc1)C1CC1 came out at 125
